# credit: PubChem BioAssay AID651813

The following molecules are listed with their measured max response values.
- SYSTEM_UNDER_TEST: DNA dC->dU-editing enzyme APOBEC-3G (Homo sapiens)
- TEST_DESCRIPTION: qHTS for inhibitors of Vif-A3G interactions: Cherry picks counterscreen;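 also: hits raise yellow fluorescence by blocking Vif-driven A3G-eYFP degradation; nearly all actives have a fitted effect of over 70% in size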;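 as to max response: max response given as percent of control signal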
- SETTINGS: HeLa A3G-eYFP + Vif, eYFP fluorescence, 24 h
Among all 2,100 compounds or so, about 1,100 (52%) were called active. Inconclusive results (about 27%) are left out. So high a share suggests a set chosen from earlier hits. The list shows a part of the results.
METRIC_NAME: max response (%)

MOLECULE | SYSTEM_UNDER_TEST | OBSERVED_VALUE
Cc1ccc(NC2=C(Cl)C(=O)N(C3CCCCC3)C2=O)cc1 | DNA dC->dU-editing enzyme APOBEC-3G (Homo sapiens) | 6.01
N#Cc1c(C(F)(F)F)cc(-c2cccs2)nc1SCC(=O)Nc1cccc(Cl)c1 | DNA dC->dU-editing enzyme APOBEC-3G (Homo sapiens) | -23.7
O=C(NC1C/C(=N/O)c2cc3c(cc21)OCO3)C(F)(F)F (configuration not stated) | DNA dC->dU-editing enzyme APOBEC-3G (Homo sapiens) | -1.11
COc1cc(NC(=O)c2ccco2)c(C(=O)OCC(=O)c2c[nH]c3ccccc23)cc1OC | DNA dC->dU-editing enzyme APOBEC-3G (Homo sapiens) | -2.18
O=C(CSc1n[nH]c(-c2ccccn2)n1)Nc1ccc(Cl)cc1 | DNA dC->dU-editing enzyme APOBEC-3G (Homo sapiens) | 17.5
CCN(CC)c1ccc2cc(-c3nc4sc5c(c4c(=O)[nH]3)CCC(C(C)(C)C)C5)c(=O)oc2c1 (configuration not stated) | DNA dC->dU-editing enzyme APOBEC-3G (Homo sapiens) | 48
CCCCn1c(N)c(N(CCC(C)C)C(=O)c2ccc([N+](=O)[O-])o2)c(=O)[nH]c1=O | DNA dC->dU-editing enzyme APOBEC-3G (Homo sapiens) | -4.38

----------
- SYSTEM_UNDER_TEST: DNA dC->dU-editing enzyme APOBEC-3G (Homo sapiens) (UniProt Q9HC16)
- Sequence (Q9HC16 whole entry, looked up): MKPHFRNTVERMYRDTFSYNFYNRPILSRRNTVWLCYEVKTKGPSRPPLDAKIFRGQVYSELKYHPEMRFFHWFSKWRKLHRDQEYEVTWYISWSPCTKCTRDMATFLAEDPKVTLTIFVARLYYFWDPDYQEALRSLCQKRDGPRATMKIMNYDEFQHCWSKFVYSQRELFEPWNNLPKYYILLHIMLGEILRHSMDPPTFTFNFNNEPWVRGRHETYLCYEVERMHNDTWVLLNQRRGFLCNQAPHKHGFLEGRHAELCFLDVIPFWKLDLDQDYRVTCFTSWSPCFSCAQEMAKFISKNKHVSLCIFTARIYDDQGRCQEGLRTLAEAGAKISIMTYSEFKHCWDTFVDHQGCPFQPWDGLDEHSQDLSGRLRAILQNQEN
- TEST_DESCRIPTION: qHTS for inhibitors of Vif-A3G interactions: Cherry picks counterscreen;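 also: hits raise yellow fluorescence by blocking Vif-driven A3G-eYFP degradation; nearly all actives have a fitted effect of over 70% in size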;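 as to max response: max response given as percent of control signal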
- SETTINGS: HeLa A3G-eYFP + Vif, eYFP fluorescence, 24 h
Screen size: about 2,100 compounds; about 1,100 (52%) were called active. Another 27% or so got no clear call; they are omitted. So high a share suggests a set chosen from earlier hits. This is one part of the list.

MOLECULE | max response / %
COc1ccc(NC(=S)Nc2ncccc2C)c(OC)c1 | -0.005
C/C(=N\NC(=O)C(C)n1nc(C)c([N+](=O)[O-])c1C)c1ccccc1O (stereo unspecified) | 3.13
CCCOc1ccc(NC(=O)CC2C(=O)N(c3ccc(OCC)cc3)C(=S)N2C2CC2)cc1 (stereo unspecified) | -18.2
CCOc1ccc(C(=O)C(CCC(CN(C)C)C(=O)c2ccc(OCC)cc2)CN(C)C)cc1 (stereo unspecified) | -24.5
N#Cc1cc2ccccc2nc1SCC(=O)Nc1ccccc1N1CCOCC1 | -5.1
CCNC(=S)N/N=C(\C)c1ccc(N2CCOCC2)cc1 | -8.21
CCOC(=O)c1ccc(NC(=S)NC(=O)C2CCCC2)cc1 | -2.63
Cc1cn2c(N)c(C=C3C=C(Cl)C(=O)C(Cl)=C3)c(=O)nc2s1 | 34.2
NNC(=O)c1cc2sccc2s1 | 2.94
COc1cccc(/C=N/n2c(C3CCCCC3)n[nH]c2=S)c1O | 12.3
COc1ccc2cc(C(=O)C3CCCN(Cc4ccccn4)C3)ccc2c1 (stereo unspecified) | -1.88
COCc1cc(C)nc(SCC(=O)Nc2ccc3[nH]c(=O)[nH]c3c2)c1C#N | -18.1
CCCSc1nnc(N2C(=O)C(O)=C(C(=O)c3ccco3)C2c2ccccc2F)s1 (stereo unspecified) | -7.3
Cn1c2ccccc2c2ccc3c(c21)C(=O)C=CC3=O | 10.2
C=CCNC(=S)N/N=C(\C)c1ccc(OC)cc1 | -1.31
COc1ccc(C2=NOC(C(=O)NCc3ccc(F)cc3)C2)cc1 (stereo unspecified) | -20.8
CC(C)c1ccc(C(=O)NCCCNC(=O)c2cnccn2)cc1 | 10.5
CC(C)NC(=S)N/N=C1\CCCCc2ccccc21 | -0.219
Cc1c(=O)n(OCc2ccc(Cl)cc2)c2ccccc2[n+]1[O-] | -2.47
O=C(NC(=S)Nc1c(Cl)cc(Cl)cc1Cl)c1ccccc1 | 6.93
O=C(OCC12CC3CC(CC(C3)C1)C2)c1ccc(NCc2cc(O)ccc2O)cc1 | 39.2
COc1ccc2c(c1)/C(=C\c1cccc(/C=C3/C(=O)Nc4ccc(OC)cc43)n1)C(=O)N2 | -72.2
Cc1cc(N2CCN(C)CC2)ccc1NC(=O)c1c2c(nc3ccccc13)CCN(Cc1ccccc1)C2 | 4.5
NC(=S)N/N=C/c1ccccc1OC(=O)/C=C/c1ccccc1 | 5.74
CSc1ccccc1NC(=O)COC(=O)/C=C/c1ccco1 | -23.9
NC(=O)CSc1nc2c(sc3ccccc32)c(=O)n1CCCC(=O)NCC1CCCO1 (stereo unspecified) | -5.1
COc1ccc(CCNC(=O)CC2(CC3=NS(=O)(=O)c4ccccc4N3)CCCC2)cc1OC | -1.6
Cc1ccc(S(=O)(=O)Nc2cc(Cl)c(O)c3ncccc23)cc1 | 10.1
COc1cc(/C=N/Nc2ccc(Cl)nn2)cc(OC)c1O | -0.979
Cc1ccc(Cl)cc1NC(=O)Nc1cn(CC(C)C)c(=O)c2ccccc12 | 10.5
Cc1ccc2nc(/C(C#N)=C/c3ccc(-c4ccccc4C(=O)O)o3)[nH]c2c1 | 43.5
C/C(CCC(C)C)=N\NC(=S)NCc1ccccc1 | -18.4
O=C(N/N=C/c1ccc([N+](=O)[O-])o1)c1cn2ccc3ccccc3c2n1 | 3.73
N#C/C(=C\c1ccc(C(=O)O)cc1)c1nc2sc3c(c2c(=O)[nH]1)CCCC3 | -29.5
C=CCNC(=O)C(C#N)c1nc2ccccc2nc1N1CCN(Cc2ccccc2)CC1 (stereo unspecified) | -10.2
Cc1cc(C)c(C(=O)N(CCN(C)C)CC2CCCN(Cc3ccccc3F)C2)o1 (stereo unspecified) | 0.428
CCn1c(O)c(/C=N/NC(=O)c2ccncc2)c(=O)n(CC)c1=S | -1.22
COc1cc(C(=O)N/N=C/C2CC=CCC2)cc(OC)c1OC (stereo unspecified) | -11.5
Cc1ccc(NC(=O)CSc2n[nH]c(-c3ccccn3)n2)cc1 | -4.16
CCC(=O)OCc1cnc(C)c2oc(=O)c(C(=O)Nc3ccccc3C(F)(F)F)cc12 | -2.09
COc1cc(N2CCCC2)c(OC)cc1/C=C1/NC(=S)NC1=O | 60.5

----------
- SYSTEM_UNDER_TEST: DNA dC->dU-editing enzyme APOBEC-3G (Homo sapiens) (UniProt Q9HC16)
- TEST_DESCRIPTION: qHTS for inhibitors of Vif-A3G interactions: Cherry picks counterscreen;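 also: hits raise yellow fluorescence by blocking Vif-driven A3G-eYFP degradation; nearly all actives have a fitted effect of over 70% in size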; also: potency is read from the fitted curve at half-maximal effect
- SETTINGS: HeLa A3G-eYFP + Vif (tagged APOBEC3G with the HIV-1 protein that degrades it), eYFP fluorescence, 24 h
About 1,100 (52%) of roughly 2,100 compounds were called active. Roughly 27% stayed inconclusive and do not appear here. So high a share suggests a set chosen from earlier hits. The list shows a part of the results.

COMPOUND | Potency
Cc1ccc(-c2cc(-c3ccco3)c3c(N)c(C(=O)NN)oc3n2)cc1 | 23.1 µM (active)
CN(C)c1ccc(C2C=C(c3ccccc3)Nc3nnnn32)cc1 (stereo unspecified) | 23.1 µM (active)
CN(C)S(=O)(=O)c1ccc2c(c1)/C(=C/c1cc3c([nH]1)CCCC3)C(=O)N2 | 2.8 µM (active)
COc1cc(/C=C2/CCC/C(=C\c3cc(O)c(OC)c(Cl)c3)C2=O)cc(Cl)c1O | 14.6 µM (active)
CCOc1cc(/C=C2\CCC/C(=C\c3cc(Cl)c(O)c(OCC)c3)C2=O)cc(Cl)c1O | 17.7 µM (active)
COc1cc(/C=C2\SC(N)=NC2=O)cc(Br)c1O | 17.7 µM (active)
COc1cc(/C=C2/SC(=Nc3ccc(O)cc3)NC2=O)ccc1O | 14.6 µM (active)
CN(C)c1ccc(/C=C/c2ccnc3c(N)cccc23)cc1 | 14.6 µM (active)
CCn1ncc(/C=N\NC(=O)c2csc3ccccc23)c1C | 5.59 µM (active)
COc1cc(/C=C/c2ccnc3ccccc23)ccc1N(C)C | 18.4 µM (active)
COc1cc(C(=O)NCCOc2cc(C)cc(C)c2)cc(OC)c1OC | 3.14 µM (active)
O=C(NCc1cccnc1)c1cccc(NS(=O)(=O)c2ccc(Br)cc2)c1 | 4.44 µM (active)
CO/N=C\CC(=O)Nc1ccc(Cl)c(Cl)c1 | 9.94 µM (active)
O=C1C=C(Nc2ccc(Cl)cc2Cl)CC(c2ccco2)C1 (stereo unspecified) | 5.59 µM (active)
COc1ccc2c(Cl)c(C(=O)N/N=C3\CCCC(=O)C3)sc2c1 | 12.5 µM (active)
CCN(CC)c1ccc(/C=C2\C(=N)N3N=C(CC(=O)N4CCOCC4)SC3=NC2=O)cc1 | 1.58 µM (active)
O=C1NC(c2ccc(Br)cc2)Nc2ccccc21 (stereo unspecified) | 17.7 µM (active)
C=CCn1c(SCc2c(C)noc2C)nc2cc(C(=O)O)ccc2c1=O | 17.7 µM (active)
NNC(=O)c1oc2nc(-c3ccccc3)cc(-c3ccco3)c2c1N | 18.4 µM (active)
CN(C)c1ccc(/C=C2\C(=N)N3N=C(CC(=O)N4CCCCC4)SC3=NC2=O)cc1 | 4.61 µM (active)
COc1cc(/C=C2\SC(=Nc3ccccc3)NC2=O)cc(Cl)c1O | 3.66 µM (active)
COc1cc(OC)cc(C(=O)N/N=C/c2ccc(OC)c(COc3ccc4ccccc4c3)c2)c1 | 15.8 µM (active)
Nc1c(N(CCC2=CCCCC2)C(=O)c2ccc([N+](=O)[O-])o2)c(=O)[nH]c(=O)n1Cc1ccccc1 | 13 µM (active)
CCCN1C=CC(=CC=C(C#N)C#N)C=C1 | 9.94 µM (active)
Cc1[nH]c2ccccc2c1/C=N/Nc1ccc([N+](=O)[O-])cc1 | 8.2 µM (active)
N#Cc1ccc(-c2cccs2)nc1SCc1c(F)cccc1Cl | 1.84 µM (active)
